Experiment: Metabolic stability in mouse liver microsomes assessed as half life
Format: ADME, Microsome
Reported half-life by item:
Provide the reading as a plain figure in h.

// solved cases for half-life follow
smiles_string=Cc1ccc(-n2nc(C(=O)N3C[C@H](C)N(C(=O)c4nc(-c5ccc6c(c5)N(C5CCC5)[C@H](C)C(=O)N6C)n(-c5ccc(C)cc5)n4)C[C@H]3C)nc2-c2ccc3c(c2)N(C2CCC2)[C@H](C)C(=O)N3C)cc1 experimental_endpoint=half-life quantitative_result=9.48
smiles_string=Cc1ccc(-n2nc(C(=O)N3C[C@H](C)N(C(=O)c4nc(-c5ccc6c(c5)N(C)[C@H](C)C(=O)N6C)n(-c5ccc(C)cc5)n4)C[C@H]3C)nc2-c2ccc3c(c2)N(C)[C@H](C)C(=O)N3C)cc1 experimental_endpoint=half-life quantitative_result=1.84

Here is another compound to look at.
In: Entry under review: C[C@@H]1CN(C(=O)c2nc(-c3ccc4c(c3)N(C3CCC3)[C@H](C)C(=O)N4C)n(-c3cccc(Cl)c3)n2)[C@@H](C)CN1C(=O)c1nc(-c2ccc3c(c2)N(C2CCC2)[C@H](C)C(=O)N3C)n(-c2cccc(Cl)c2)n1 . Reported half-life?
Out: 3.72

---

Reported MRT by item:
Assay: Observed MRT infinity in CD-1 mouse at 10 mg/kg, po
Type: ADME, organism-based
Settings: in vivo
Provide the reading as a plain figure in h.

smiles_string=Cc1ccc(-n2nc(C(=O)NCCCNC(=O)c3nc(-c4ccc5c(c4)N(C4CCCC4)[C@H](C)C(=O)N5C)n(-c4ccc(C)cc4)n3)nc2-c2ccc3c(c2)N(C2CCCC2)[C@H](C)C(=O)N3C)cc1 units=h quantitative_result=1.75
smiles_string=Cc1ccc(-n2nc(C(=O)N(C)CCN(C)C(=O)c3nc(-c4ccc5c(c4)N(C4CCCC4)[C@H](C)C(=O)N5C)n(-c4ccc(C)cc4)n3)nc2-c2ccc3c(c2)N(C2CCCC2)[C@H](C)C(=O)N3C)cc1 units=h quantitative_result=1.07
smiles_string=Cc1ccc(-n2nc(C(=O)N3C[C@H](C)N(C(=O)c4nc(-c5ccc6c(c5)N(C5CCCC5)[C@H](C)C(=O)N6C)n(-c5ccc(C)cc5)n4)C[C@H]3C)nc2-c2ccc3c(c2)N(C2CCCC2)[C@H](C)C(=O)N3C)cc1 units=h quantitative_result=3.82
smiles_string=Cc1ccc(-n2nc(C(=O)N3CCCN(C(=O)c4nc(-c5ccc6c(c5)N(C5CCCC5)[C@H](C)C(=O)N6C)n(-c5ccc(C)cc5)n4)CC3)nc2-c2ccc3c(c2)N(C2CCCC2)[C@H](C)C(=O)N3C)cc1 units=h quantitative_result=2.57
smiles_string=Cc1ccc(-n2nc(C(=O)N[C@@H]3CCCC[C@H]3NC(=O)c3nc(-c4ccc5c(c4)N(C4CCCC4)[C@H](C)C(=O)N5C)n(-c4ccc(C)cc4)n3)nc2-c2ccc3c(c2)N(C2CCCC2)[C@H](C)C(=O)N3C)cc1 units=h quantitative_result=11.2

In: Entry under review: Cc1ccc(-n2nc(C(=O)N3CCN(C(=O)c4nc(-c5ccc6c(c5)N(C5CCCC5)[C@H](C)C(=O)N6C)n(-c5ccc(C)cc5)n4)[C@H](C)C3)nc2-c2ccc3c(c2)N(C2CCCC2)[C@H](C)C(=O)N3C)cc1 . Reported MRT?
Out: 4.85

In: Entry under review: Cc1ccc(-n2nc(C(=O)N3CCN(C(=O)c4nc(-c5ccc6c(c5)N(C5CCCC5)[C@H](C)C(=O)N6C)n(-c5ccc(C)cc5)n4)CC3)nc2-c2ccc3c(c2)N(C2CCCC2)[C@H](C)C(=O)N3C)cc1 . Reported MRT?
Out: 1.69
